# Measured target: Smad4 MH1 domain (Homo sapiens, UniProt Q13485 10-140)
# Sequence (Q13485 10-140): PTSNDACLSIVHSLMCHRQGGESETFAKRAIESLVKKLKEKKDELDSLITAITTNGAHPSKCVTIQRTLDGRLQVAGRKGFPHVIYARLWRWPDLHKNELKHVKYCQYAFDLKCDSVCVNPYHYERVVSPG
# Measurement notes: ITC; EMSA: 20 mM Tris pH 7.2, 80 mM NaCl, 2 mM DTT, 7.5 nM Cy5-DNA, 30 min room temperature, gel at 20 C; ITC: Tris pH 7.0, 20 C
# Condition label: protein: recombinant; tags: N-terminal His, cleaved (TEV or 3C); blunt
Property measured: pKd
Note on units: pKd is unitless, being -log10 of a concentration expressed in mol/L.

The reported value for CAGAC (ITC) (dsDNA) DNA 1: AGTCAGACGCT DNA 2: AGCGTCTGACT in terms of pKd is 6.57
